target or test system: mouse ADAMTS7 (Mus musculus)
Construct: Full-length mouse Adamts7 1-1857 (Uniprot Q68SA9, WT or E373Q catalytic mutant); expressed in transfected cells; host or cells: Human Coronary Artery Smooth Muscle Cells (HCA-SMC, Lonza), adenovirus 50 MOI
Sequence (Q68SA9 221-1657): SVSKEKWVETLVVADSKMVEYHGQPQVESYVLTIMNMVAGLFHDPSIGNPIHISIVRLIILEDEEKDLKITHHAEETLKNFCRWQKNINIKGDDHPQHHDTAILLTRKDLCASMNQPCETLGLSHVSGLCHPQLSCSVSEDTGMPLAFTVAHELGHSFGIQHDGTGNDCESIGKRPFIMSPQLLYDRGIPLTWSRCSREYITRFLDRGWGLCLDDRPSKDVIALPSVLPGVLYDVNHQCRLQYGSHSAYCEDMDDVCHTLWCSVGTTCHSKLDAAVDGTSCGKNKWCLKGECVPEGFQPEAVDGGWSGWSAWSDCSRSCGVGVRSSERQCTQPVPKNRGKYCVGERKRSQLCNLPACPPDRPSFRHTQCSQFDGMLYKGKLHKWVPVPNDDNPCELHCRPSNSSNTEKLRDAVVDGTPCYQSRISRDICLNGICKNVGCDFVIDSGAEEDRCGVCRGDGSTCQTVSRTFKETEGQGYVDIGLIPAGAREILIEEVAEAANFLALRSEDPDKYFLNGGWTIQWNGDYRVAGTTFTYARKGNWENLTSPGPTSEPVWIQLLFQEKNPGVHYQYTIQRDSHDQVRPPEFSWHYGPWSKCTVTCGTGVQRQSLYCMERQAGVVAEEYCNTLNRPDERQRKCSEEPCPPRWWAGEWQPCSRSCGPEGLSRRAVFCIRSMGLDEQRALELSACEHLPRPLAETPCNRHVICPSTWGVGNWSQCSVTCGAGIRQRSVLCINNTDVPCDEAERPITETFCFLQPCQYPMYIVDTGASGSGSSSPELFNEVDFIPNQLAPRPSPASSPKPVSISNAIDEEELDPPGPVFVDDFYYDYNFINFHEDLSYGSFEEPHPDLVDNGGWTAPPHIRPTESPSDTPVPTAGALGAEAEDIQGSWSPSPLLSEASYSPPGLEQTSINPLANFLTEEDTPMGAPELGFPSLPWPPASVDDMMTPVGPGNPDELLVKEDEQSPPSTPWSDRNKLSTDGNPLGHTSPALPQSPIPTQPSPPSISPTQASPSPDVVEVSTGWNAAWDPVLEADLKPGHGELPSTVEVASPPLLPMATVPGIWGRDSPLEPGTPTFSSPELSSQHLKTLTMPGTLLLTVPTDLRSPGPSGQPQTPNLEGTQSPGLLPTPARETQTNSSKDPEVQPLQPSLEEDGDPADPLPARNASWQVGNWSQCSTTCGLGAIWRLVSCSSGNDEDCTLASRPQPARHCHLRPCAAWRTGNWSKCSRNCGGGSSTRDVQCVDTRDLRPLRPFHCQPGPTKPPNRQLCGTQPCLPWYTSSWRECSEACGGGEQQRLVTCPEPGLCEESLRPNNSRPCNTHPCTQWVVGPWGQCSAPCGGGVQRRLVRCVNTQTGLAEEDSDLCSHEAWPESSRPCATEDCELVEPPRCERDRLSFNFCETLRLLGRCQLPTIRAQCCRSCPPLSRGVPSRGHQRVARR
experiment: TMT10 TAILS N-terminomics, SMC2 experiment (process replicates, trypsin/AspN digest)
Assay type: cell-based
applied conditions: log fold change, ADAMTS7 WT over luciferase
In this section we review reported logFC.mWT.over.Lux values for a set of substances.
Respond using a number only.

### Prompt Dear colleague, please send me the reported logFC.mWT.over.Lux for SRGN_62 (GESNKIPR; listed as Homo sapiens) when you can.
### Response 2.82

### Prompt Dear colleague, please send me the reported logFC.mWT.over.Lux for TMEM132A_52 (LLDAPEHFR; listed as Homo sapiens) when you can.
### Response 2.65

### Prompt Dear colleague, please send me the reported logFC.mWT.over.Lux for STC1_37 (QNSAEVVR; listed as Homo sapiens) when you can.
### Response 4.56

### Prompt Dear colleague, please send me the reported logFC.mWT.over.Lux for TGFBI_24 (GPAKSPYQLVLQHSR; listed as Homo sapiens) when you can.
### Response 0.77

### Prompt Dear colleague, please send me the reported logFC.mWT.over.Lux for VIM_314 (QESTEYR; listed as Homo sapiens) when you can.
### Response 2.63

Now for the substance whose logFC.mWT.over.Lux we want.
### Prompt Dear colleague, please send me the reported logFC.mWT.over.Lux for SDC4_106 (LEENEVIPKR; listed as Homo sapiens) when you can.
### Response 1.32

* * *

target or test system: mouse ADAMTS7 (Mus musculus, UniProt Q68SA9)
Construct: Full-length mouse Adamts7 1-1857 (Uniprot Q68SA9, WT or E373Q catalytic mutant); expressed in transfected cells; host or cells: Human Coronary Artery Smooth Muscle Cells (HCA-SMC, Lonza), adenovirus 50 MOI
Sequence (Q68SA9 221-1657): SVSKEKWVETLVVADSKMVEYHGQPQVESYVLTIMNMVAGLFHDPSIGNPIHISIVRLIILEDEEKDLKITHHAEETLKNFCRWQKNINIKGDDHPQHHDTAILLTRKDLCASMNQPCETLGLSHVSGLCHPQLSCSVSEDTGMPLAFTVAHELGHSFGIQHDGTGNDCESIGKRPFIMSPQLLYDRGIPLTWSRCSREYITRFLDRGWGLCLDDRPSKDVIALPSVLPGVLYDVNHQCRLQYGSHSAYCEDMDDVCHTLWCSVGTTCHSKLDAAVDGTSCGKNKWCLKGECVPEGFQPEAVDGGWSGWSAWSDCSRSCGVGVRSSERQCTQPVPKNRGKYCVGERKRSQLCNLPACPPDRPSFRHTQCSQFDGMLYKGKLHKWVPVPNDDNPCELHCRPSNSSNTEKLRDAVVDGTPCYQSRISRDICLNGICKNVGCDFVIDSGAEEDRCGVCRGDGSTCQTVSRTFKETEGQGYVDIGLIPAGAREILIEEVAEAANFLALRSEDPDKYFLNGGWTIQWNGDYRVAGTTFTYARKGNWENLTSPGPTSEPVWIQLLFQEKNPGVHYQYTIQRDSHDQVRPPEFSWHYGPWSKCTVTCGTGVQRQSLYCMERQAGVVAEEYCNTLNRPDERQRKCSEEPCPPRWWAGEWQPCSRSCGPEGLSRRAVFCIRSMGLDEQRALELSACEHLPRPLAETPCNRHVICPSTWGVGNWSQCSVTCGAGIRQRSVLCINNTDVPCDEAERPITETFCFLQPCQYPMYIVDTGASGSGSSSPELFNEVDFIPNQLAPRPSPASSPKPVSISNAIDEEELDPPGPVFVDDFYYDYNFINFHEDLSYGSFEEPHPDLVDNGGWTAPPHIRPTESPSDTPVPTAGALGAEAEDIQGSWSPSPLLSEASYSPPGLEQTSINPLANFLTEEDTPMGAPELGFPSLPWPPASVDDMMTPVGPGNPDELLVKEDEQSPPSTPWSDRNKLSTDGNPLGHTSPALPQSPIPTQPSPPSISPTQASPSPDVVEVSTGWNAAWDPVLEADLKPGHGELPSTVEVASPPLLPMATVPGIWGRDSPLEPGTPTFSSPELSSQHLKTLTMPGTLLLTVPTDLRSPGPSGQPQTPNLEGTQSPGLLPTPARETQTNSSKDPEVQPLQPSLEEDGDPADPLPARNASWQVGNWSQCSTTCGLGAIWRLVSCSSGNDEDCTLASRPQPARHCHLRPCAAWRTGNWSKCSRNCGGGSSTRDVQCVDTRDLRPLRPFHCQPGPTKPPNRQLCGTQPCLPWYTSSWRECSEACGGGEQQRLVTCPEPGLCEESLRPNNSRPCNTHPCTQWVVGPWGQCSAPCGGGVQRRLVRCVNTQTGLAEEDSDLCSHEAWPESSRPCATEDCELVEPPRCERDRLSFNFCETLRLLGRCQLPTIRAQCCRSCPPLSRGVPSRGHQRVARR
experiment: TMT10 TAILS N-terminomics, SMC1 experiment (Ad-mADAMTS7 WT vs EQ vs Luc, technical replicates, trypsin digest)
Format: cell-based
applied conditions: TAILS neo-N-terminal peptide abundance; log fold change, Ad-mADAMTS7 WT over Luc
Square brackets hold non-standard residues; d marks the D form. Ends that are not written are not given here. Met(O) = CS(=O)CC[C@H](N)C(=O)O
endpoint name: logFC.mWT.over.Lux
Respond using a number only.

### Prompt Dear colleague, please send me the reported logFC.mWT.over.Lux for FBLN2_260 (LGPPAPVQAKAR; listed as Homo sapiens) when you can.
### Response 3.46

More entries:
### Prompt Dear colleague, please send me the reported logFC.mWT.over.Lux for HEG1_49 (GAGLELQLER; listed as Homo sapiens) when you can.
### Response 1.72

### Prompt Dear colleague, please send me the reported logFC.mWT.over.Lux for FLNA_695 (FTVDAKHGGKAPLR; listed as Homo sapiens) when you can.
### Response 4.79

### Prompt Dear colleague, please send me the reported logFC.mWT.over.Lux for EFHD2_67 (QGIGEPQSPSR; listed as Homo sapiens) when you can.
### Response 0.81

### Prompt Dear colleague, please send me the reported logFC.mWT.over.Lux for PSAP_171 (F[Met(O)]ANIPLLLYPQDGPR; listed as Homo sapiens) when you can.
### Response 1.13

### Prompt Dear colleague, please send me the reported logFC.mWT.over.Lux for LOX_58 (LSLGSQYQPQR; listed as Homo sapiens) when you can.
### Response 0.88

Each recorded value in this set is attributed to patent US20240368668A1.
